Values from ChEMBL document CHEMBL1649469

test: Cmax in healthy human at 2000 […], po administered as single dose measured after 72 hrs by HPLC method; assay type: ADME, organism-based; set-up: route oral; conditions: in vivo

| molecule | unit descriptor | Cmax |
| --- | --- | --- |
| C[C@@H]([C@H](N)C(=O)N[C@H](C(=O)O)[C@H]1O[C@@H](n2ccc(=O)[nH]c2=O)[C@H](O)[C@@H]1O)[C@H](O)c1ccc(O)cn1 | ng/mL | 6420 |

----------
experiment: Terminal half life in healthy human at 250 mg, po administered as single dose measured after 72 hrs by HPLC method; settings: in vivo, read-out: beta t1/2 (converted)
reported metric: half-life (h)

| compound | unit descriptor | value observed |
| --- | --- | --- |
| C[C@@H]([C@H](N)C(=O)N[C@H](C(=O)O)[C@H]1O[C@@H](n2ccc(=O)[nH]c2=O)[C@H](O)[C@@H]1O)[C@H](O)c1ccc(O)cn1 [NIKKOMYCIN] | h | 2.53 |
